Reported IC50, Eotaxin-1 assay, Average by item:
- TESTED_ON: IL-13 (human IL-13, preparation not specified) (human, UniProt P35225 35-146, limits assumed)
- Sequence (P35225 35-146 limits assumed): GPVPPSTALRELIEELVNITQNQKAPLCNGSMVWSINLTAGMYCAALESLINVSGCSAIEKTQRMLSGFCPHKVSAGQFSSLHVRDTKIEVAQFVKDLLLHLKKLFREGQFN
- TEST: cell-based or functional assay
A number alone suffices; assume pM.

Guide cases for IC50, Eotaxin-1 assay, Average, answers given:
antibody 602 (antibody, V domains shown, also called mAb 602) VH: EVQLVESGGGLVKPGGSLRLSCAASGFTFSNAWMSWVRQAPGKGLEWVGRIRSKIDGGTINYAAPVKGRFTISRDDSKNTLYLQMNSLKTEDTAVYYCATDQVGAYYGDYYGMDVWGQGTLVTVSS VL: SYELTQPPSVSVSPGQTARITCSGDALPEKYAYWYQQKSGQAPVLVIYEDTKRPSGIPERFSGSSSGTMATLTISGAQVEDEADYYCYSTDSSGNHGVFGGGTKLTVL : 66
antibody 623 (antibody, V domains shown) VH: EVQLVESGGGLVKPGGSLRLSCAASGFTFSNAWMSWVRQAPGKGLEWVGRIRSEIDGGTTNYAAPVKGRFTISRDDSKNTLYLQMNSLKTEDTAVYYCATDQVGAYYGDYYGMDVWGQGTLVTVSS VL: SYELTQPPSVSVSPGQTARITCSGDALPEKYAYWYQQKSGQAPVLVIYEDSKRPSGIPERFSGSSSGTMATLTISGAQVEDEADYYCHSTDSSGNHGVFGGGTKLTVL : 36

Form field IC50, Eotaxin-1 assay, Average, entry antibody 693 (antibody, V domains shown, also called sc693) VH: QVQLQESGPGLVKPSETLSLTCSVSGGSISSYYWSWIRQPAGKGLEWIGRIYMTGRTNYNSSLKSRVTMSIDTSKNQLSLKLSFMTAADTAVYYCARESGSSYSYDYWGQGTLVTVSS VL: SYVLTQPPSVSVAPGQTARITCGGNNIGSKGVHWYQQKPGQAPVLVVYDDSDRPSGIPERFSGSNSGNTATLTISRVEAGDEADYYCQVWVSSSDHHVVFGGGTKLTVV : 54
